method summary: self-splicing fitness, log relative to wild type (ln ratio); higher = more splicing; Tetrahymena group I intron in knt gene, E. coli kanamycin selection, DiMSum; sequences stand for … in CUCUCU…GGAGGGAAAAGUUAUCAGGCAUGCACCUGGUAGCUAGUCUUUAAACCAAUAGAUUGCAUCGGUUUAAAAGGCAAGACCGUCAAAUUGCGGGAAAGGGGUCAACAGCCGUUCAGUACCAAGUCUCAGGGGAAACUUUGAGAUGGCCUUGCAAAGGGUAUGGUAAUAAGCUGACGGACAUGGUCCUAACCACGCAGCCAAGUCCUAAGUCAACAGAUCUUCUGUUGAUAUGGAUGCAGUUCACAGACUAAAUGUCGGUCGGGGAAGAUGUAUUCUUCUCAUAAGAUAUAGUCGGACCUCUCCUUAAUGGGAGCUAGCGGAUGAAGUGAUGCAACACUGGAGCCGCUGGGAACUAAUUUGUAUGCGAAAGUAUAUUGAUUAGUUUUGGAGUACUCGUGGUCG;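 also: selection with 25 µg/mL kanamycin versus none on LB agar overnight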
protocol conditions: 30 °C
Param threshold (-3) applies to self-splicing fitness (ln); output Y when value >= threshold, N when value < threshold.

* UAUAAGCAAUAUUACGUGUC | N
* AUCAAGCAAUAUUACGAUCG | N
* UGAUAGCAAUAUUACGGCAU | Y
* CUACAGCAAUAUUACGGAUA | N
* GACCAGCAAUAUUACGUGAG | Y
